Molecular target: T1, human MAdCAM (human, UniProt Q13477 19-317, limits assumed)
T1 construct: also called huMAdCAM; human MAdCAM-1
T1 sequence (looked up): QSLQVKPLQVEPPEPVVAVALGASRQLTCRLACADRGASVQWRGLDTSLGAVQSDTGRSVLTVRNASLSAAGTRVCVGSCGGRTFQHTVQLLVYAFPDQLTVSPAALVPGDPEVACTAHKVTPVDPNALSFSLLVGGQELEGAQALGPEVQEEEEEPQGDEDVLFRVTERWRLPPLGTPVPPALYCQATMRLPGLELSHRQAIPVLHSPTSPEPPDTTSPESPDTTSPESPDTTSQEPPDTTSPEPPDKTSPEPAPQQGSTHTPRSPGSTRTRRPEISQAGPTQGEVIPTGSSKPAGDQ
Assay: BLI (Octet), binder on anti-human Fc tips

BINDER	koff / s⁻¹
MIAB133 (antibody, V domains shown, tested with human Fc; also called MIAB133-001) VH: EVQLLESGGGLVQPGGSLRLSCAASGFTFSSFWMHWVRQAPGKGLEWISYISGDSGYTNYADSVKGRFTISRDNSKNTLYLQMNSLRAEDTAVYYCARDRPYYYYMDVWGKGTTVTVSS VL: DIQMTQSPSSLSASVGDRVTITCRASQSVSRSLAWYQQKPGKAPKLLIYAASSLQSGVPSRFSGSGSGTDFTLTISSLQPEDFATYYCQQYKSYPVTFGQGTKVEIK	0.0113
MIAB174 (antibody, V domains shown, tested with human Fc; also called MIAB174-001) VH: EVQLLESGGGLVQPGGSLRLSCAASGFTFSDYWMHWVRQAPGKGLEWISYISGDSGYTNYADSVKGRFTISRDNSKNTLYLQMNSLRAEDTAVYYCARDRPYYYYMDVWGKGTTVTVSS VL: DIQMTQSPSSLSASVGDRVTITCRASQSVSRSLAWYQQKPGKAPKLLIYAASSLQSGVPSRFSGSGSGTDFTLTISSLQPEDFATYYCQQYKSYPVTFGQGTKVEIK	0.00969
MIAB151 (antibody, V domains shown, tested with human Fc) VH: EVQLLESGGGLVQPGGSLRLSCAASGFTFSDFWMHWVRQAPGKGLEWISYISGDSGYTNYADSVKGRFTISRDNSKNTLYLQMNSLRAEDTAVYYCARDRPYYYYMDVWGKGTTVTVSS VL: DIQMTQSPSSLSASVGDRVTITCRASQSISRSLNWYQQKPGKAPKLLIYAASSLQSGVPSRFSGSGSGTDFTLTISSLQPEDFATYYCQQYKSYPVTFGQGTKVEIK	0.292
MIAB149 (antibody, V domains shown, tested with human Fc; also called MIAB149-001) VH: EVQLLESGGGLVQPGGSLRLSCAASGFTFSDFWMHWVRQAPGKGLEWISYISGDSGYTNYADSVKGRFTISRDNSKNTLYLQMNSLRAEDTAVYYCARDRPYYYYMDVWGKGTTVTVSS VL: DIQMTQSPSSLSASVGDRVTITCRASQSISSSLAWYQQKPGKAPKLLIYAASSLQSGVPSRFSGSGSGTDFTLTISSLQPEDFATYYCQQYKSYPVTFGQGTKVEIK	0.0259
MIAB137 (antibody, V domains shown, tested with human Fc) VH: EVQLLESGGGLVQPGGSLRLSCAASGFTFSDFWMHWVRQAPGKGLEWVSAISGSGGSTYYADSVKGRFTISRDNSKNTLYLQMNSLRAEDTAVYYCARDRPYYYYMDVWGKGTTVTVSS VL: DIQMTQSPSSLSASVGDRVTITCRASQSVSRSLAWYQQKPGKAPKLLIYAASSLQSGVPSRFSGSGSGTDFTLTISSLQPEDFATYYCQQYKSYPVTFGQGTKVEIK	0.082
MIAB153 (antibody, V domains shown, tested with human Fc) VH: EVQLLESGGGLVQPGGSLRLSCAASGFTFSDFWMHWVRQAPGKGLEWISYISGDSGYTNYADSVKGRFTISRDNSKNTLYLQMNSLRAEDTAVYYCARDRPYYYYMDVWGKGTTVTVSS VL: DIQMTQSPSSLSASVGDRVTITCRASQSVSSSLNWYQQKPGKAPKLLIYAASSLQSGVPSRFSGSGSGTDFTLTISSLQPEDFATYYCQQYKSYPVTFGQGTKVEIK	0.543
